# experimental target: human ether-à-go-go-related gene (hERG) potassium channel (human, UniProt Q12809)
# Sequence (Q12809 whole entry, looked up): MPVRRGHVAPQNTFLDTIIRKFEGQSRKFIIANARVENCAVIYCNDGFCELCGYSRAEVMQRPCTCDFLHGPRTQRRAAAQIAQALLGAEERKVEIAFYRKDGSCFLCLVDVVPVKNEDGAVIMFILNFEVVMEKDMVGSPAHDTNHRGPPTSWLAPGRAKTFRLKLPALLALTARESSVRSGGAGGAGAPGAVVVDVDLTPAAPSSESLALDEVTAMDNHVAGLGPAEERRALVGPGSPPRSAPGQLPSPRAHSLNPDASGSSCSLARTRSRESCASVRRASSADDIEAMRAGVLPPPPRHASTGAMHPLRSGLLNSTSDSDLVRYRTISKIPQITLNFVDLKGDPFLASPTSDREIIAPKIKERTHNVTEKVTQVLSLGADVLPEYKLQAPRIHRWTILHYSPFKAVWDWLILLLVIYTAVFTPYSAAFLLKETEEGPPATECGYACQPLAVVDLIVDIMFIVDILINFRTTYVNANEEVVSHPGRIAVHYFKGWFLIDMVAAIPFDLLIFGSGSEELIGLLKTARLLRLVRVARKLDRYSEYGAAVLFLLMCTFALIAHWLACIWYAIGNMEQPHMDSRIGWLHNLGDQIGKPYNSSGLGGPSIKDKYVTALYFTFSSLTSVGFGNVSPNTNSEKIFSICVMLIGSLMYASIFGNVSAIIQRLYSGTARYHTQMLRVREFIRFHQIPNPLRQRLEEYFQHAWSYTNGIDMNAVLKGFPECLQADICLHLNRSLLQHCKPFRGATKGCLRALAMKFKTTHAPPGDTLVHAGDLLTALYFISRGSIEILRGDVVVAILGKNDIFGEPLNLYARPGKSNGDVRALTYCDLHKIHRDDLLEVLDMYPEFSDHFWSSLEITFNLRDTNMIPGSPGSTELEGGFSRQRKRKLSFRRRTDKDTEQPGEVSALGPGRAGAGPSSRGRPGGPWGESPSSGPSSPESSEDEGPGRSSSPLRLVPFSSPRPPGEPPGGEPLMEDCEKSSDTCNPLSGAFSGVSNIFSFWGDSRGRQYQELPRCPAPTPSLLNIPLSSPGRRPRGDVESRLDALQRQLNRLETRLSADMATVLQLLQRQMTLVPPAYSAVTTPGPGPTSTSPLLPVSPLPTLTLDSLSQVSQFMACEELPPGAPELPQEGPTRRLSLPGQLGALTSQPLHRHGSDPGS
# assay method text: primary screen, population patch clamp on CHO cells stably expressing hERG; higher = less effect of the substance
Hit rate of the full screen: of about 310,000 compounds, about 2,200 (0.71%) showed an effect of 50% or more. The effect is printed as a negative number. The sample as a whole holds a higher share of strong results than the screen did.
reported metric: hERG current change (%, negative = inhibition) at 1uM (%)

* O=C(Nc1cc(Br)ccc1O)C1CC(c2ccccc2Cl)=NO1 (centres unmarked) | 18.5
* CC(=O)c1cc(C#N)c(SCc2ccc([N+](=O)[O-])cc2)nc1C | 10.4
* OC(CN1CCN(c2ccc(F)cc2)CC1)c1ccc(Cl)cc1 (centres unmarked) | 2.87
* COc1ccc(C(=O)NC(=S)N2CCCCC2)cc1[N+](=O)[O-] | 5.8
* CCOc1ccc(NC(=O)CN2CCN(CC(=O)Nc3ccc(F)cc3)CC2)cc1 | -87.3
* Cc1cc(C)nc(SCc2ccc([N+](=O)[O-])cc2)n1 | 6.29
* O=C(CCCN1CCC(O)(c2ccc(Br)cc2)CC1)c1ccc(F)cc1 | -75.7
* O=C(Cn1nc(-c2ccccc2)c2ccccc2c1=O)Nc1ccc2c(c1)nc1n2CCOC1 | 13.3
* CCOC(=O)N1CCC(NC(=O)c2cc(-c3ccc(F)cc3)[nH]c2C)CC1 | 11.6
* Cl.O=C(CCN1CCN(c2ccccc2F)CC1)c1ccc(Br)cc1 | -40
* CC1CCN(CC(C)OC(=O)c2ccc3c(c2)OCCO3)CC1.Cl (centres unmarked) | 3.75
* Cc1ccc(C)c(/C=C(\C(=O)O)c2ccc(S(=O)(=O)N3CCCCC3)s2)c1 | 6.97
* CCOc1ccc(NC(=O)CN2CCN(c3ccc(F)cc3)CC2)cc1 | 11.4
* Cc1[nH]c(-c2ccc(F)cc2)cc1C(=O)N1CCN(c2ccccc2)CC1 | -29
* CC(=O)N1C(=O)C2(C(C#N)=C(N)Oc3c2c(C)nn3-c2ccccc2)c2ccccc21 (centres unmarked) | 11
* CCCCc1ccc(NC(=S)NN2CCOCC2)cc1 | 12.1
* CCCOc1ccc(N2C(=O)CC(NCCNc3ccc([N+](=O)[O-])cn3)C2=O)cc1 (centres unmarked) | -57.8
* Cc1nc(N)nc(SCc2ccc([N+](=O)[O-])cc2)c1N | -70.8
* CC(=O)N1CCc2cc(Br)cc(S(=O)(=O)N3CCc4ccccc43)c21 | -1.76
* O=C(CN1CCC(O)(c2ccc(F)cc2)CC1)NCc1ccc(F)cc1 | -0.396
